System: SARS-CoV-2
Assay: microbe, parasite or virus in culture
Assay type: cell-based
Conditions: Severe acute respiratory syndrome coronavirus 2, Vero C1008; Vero E6 cells, MOI 0.5 PFU/cell, 22 h, in additional presence of 0.5 µM remdesivir; read-out: EC50 + Rem. of viral replication (viral nucleoprotein area)
Known EC50 of a selection of compounds
Lab note: write values as number then unit, every time.

1. Nc1nc(OCc2cc(Br)cs2)c2[nH]cnc2n1 = 44.1 µM

Here is another compound to look at.
Problem: For the compound O=C(CCCN1CCC(O)(c2cccc(C(F)(F)F)c2)CC1)c1ccc(F)cc1 , what EC50 is on record?
Result: 5.05 µM
